Attribution: patent US20230365705A1

Target: T1, Human CD93 on cells (human CD93 expressing CHO cells; HUVEC, U937 and KG1a cells) (human, UniProt Q9NPY3 22-652)
T1 construct: whole, on cells; also called hCD93 expressing CHO cells; hCD93 CHO cells
T1 sequence (looked up): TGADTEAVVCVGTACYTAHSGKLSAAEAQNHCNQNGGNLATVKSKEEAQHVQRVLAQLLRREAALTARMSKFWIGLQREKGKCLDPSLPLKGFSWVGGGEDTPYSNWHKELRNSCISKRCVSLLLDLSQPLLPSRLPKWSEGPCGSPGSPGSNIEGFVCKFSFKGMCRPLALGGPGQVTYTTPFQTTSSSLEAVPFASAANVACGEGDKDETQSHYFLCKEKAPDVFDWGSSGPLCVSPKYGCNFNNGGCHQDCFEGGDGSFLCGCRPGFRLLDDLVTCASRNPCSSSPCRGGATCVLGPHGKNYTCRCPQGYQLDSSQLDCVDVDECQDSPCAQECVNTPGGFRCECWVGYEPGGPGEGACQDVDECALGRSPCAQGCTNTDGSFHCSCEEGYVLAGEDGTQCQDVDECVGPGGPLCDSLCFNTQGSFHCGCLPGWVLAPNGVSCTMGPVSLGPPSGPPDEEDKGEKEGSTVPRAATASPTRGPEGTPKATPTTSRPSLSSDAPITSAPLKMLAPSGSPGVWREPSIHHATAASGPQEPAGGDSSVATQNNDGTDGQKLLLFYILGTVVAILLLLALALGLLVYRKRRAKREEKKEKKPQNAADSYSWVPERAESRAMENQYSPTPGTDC
Assay: flow cytometry, CHO cells overexpressing human CD93, antibody 0.01ug, mIgG1 as control, APC-A
reported_endpoint: M2 gate, % of cells (%)
Provide only the numeric value, understood in %.

As a guide, the following entries are already answered.
{"columns": ["binder", "reported_endpoint", "unit_name", "measured_value"],
 "data": [
  ["humanized 17B10 H2L1 (antibody, mouse IgG1, V domains shown, Chimeric Fc: human CH1, mouse IgG1 CH2 and CH3) VH: QVQLVQSGAEVVKSGASVKVSCKASGYAFSSYWLNWVRQAPGQGLEWFGRIYPGDGDTDYNGKFKGRVTLIRDTSTSTVYMELTSLTSEDTAVYYCVRGDGYWAMDYWGQGTLVTVSS VL: DIVMTQSPLSLPVTPGEPASISCRFSQSLLHSNGITYLYWYLQKPGQSPQLLIYQMSNLASGVPDRFSGSGSGTDFTLKISRVEAEDVGVYYCAQNLELPWTFGGGTKLEIK", "M2 gate, % of cells", "%", 98.2],
  ["humanized 17B10 H1L3 (antibody, mouse IgG1, V domains shown, Chimeric Fc: human CH1, mouse IgG1 CH2 and CH3) VH: QVQLVQSGAEVKKPGSSVKVSCKASGYAFSSYWLNWVRQAPGQGLEWFGRIYPGDGDTDYNGKFKGRVTLTADKSTSTAYMELSSLRSEDTAVYFCVRGDGYWAMDYWGQGTTVTVSS VL: DIVMTQSPDSLAVSLGERATINCRFSKSLLHSNGITYLYWYQQKPGQPPKLLIYQMSNLASGVPDRFSGSGSGTDFTLTISSLQAEDVAVYYCAQNLELPWTFGGGTKLEIK", "M2 gate, % of cells", "%", 99.2],
  ["humanized 17B10 H3L2 (antibody, mouse IgG1, V domains shown, Chimeric Fc: human CH1, mouse IgG1 CH2 and CH3) VH: QVQLVQSGPEVKKPGESLKISCKASGYAFSSYWLNWVRQMPGKGLEWMGRIYPGDGDTDYNGKFKGQVTISADKSSGTAYLQLSSLKASDTAVYFCVRGDGYWAMDYWGQGTLVTVSS VL: DIVMTQTPLSLPVTPGEPASISCRFSQSLLHSNGITYLYWYLQKPGQSPQLLIYTMSNLASGVPDRFSGSGSGTDFTLKISRVEAEDVGVYYCAQNLELPWTFGGGTKLEIK", "M2 gate, % of cells", "%", 96.7]
]}

For humanized 17B10 (VH3VL3, i.e., H3L3) with a chimeric Fc containing mouse IgG1 CH2 and CH3 domains and human CH1 domains (antibody, V domains shown, Human CH1, mouse IgG1 CH2 and CH3; also called h17B10-H3L3; humanized 17B10-mFc) VH: QVQLVQSGPEVKKPGESLKISCKASGYAFSSYWLNWVRQMPGKGLEWMGRIYPGDGDTDYNGKFKGQVTISADKSSGTAYLQLSSLKASDTAVYFCVRGDGYWAMDYWGQGTLVTVSS VL: DIVMTQSPDSLAVSLGERATINCRFSKSLLHSNGITYLYWYQQKPGQPPKLLIYQMSNLASGVPDRFSGSGSGTDFTLTISSLQAEDVAVYYCAQNLELPWTFGGGTKLEIK the binder record lists M2 gate, % of cells as 93
